MIC reference
Test system: Streptococcus pneumoniae
protocol.details: Antimicrobial activity against drug-susceptible Streptococcus pneumoniae 3 after 20 hrs by agar dilution method
Format: functional
Enter your answer as a number in µg/mL; do not include the unit.

molecule	experimental.system	recorded.metric	recorded.result
CCOC(=O)[C@H]1[C@H](C)O[C@@H](O[C@H]2[C@H](N(C)C)[C@@H](O)[C@H](O[C@H]3[C@@H](CC=O)C[C@@H](C)[C@@H](O)CN(C)CCC(CCCc4cnc5ccccc5c4)NC(=O)C[C@@H](OC(=O)CC)[C@@H]3OC)O[C@@H]2C)C[C@@]1(C)O (stereo in doubt)	Streptococcus pneumoniae	MIC	0.06
CCOC(=O)[C@H]1[C@H](C)O[C@@H](O[C@H]2[C@H](N(C)C)[C@@H](O)[C@H](O[C@H]3[C@@H](CC=O)C[C@@H](C)[C@@H](O)CN(C)CC(/C=C/Cc4cnc5ccccc5c4)CCOC(=O)C[C@@H](OC(=O)CC)[C@@H]3OC)O[C@@H]2C)C[C@@]1(C)O (stereo in doubt; form 2)	Streptococcus pneumoniae	MIC	0.03

Challenge: Which MIC value is on record for CCOC(=O)[C@H]1[C@H](C)O[C@@H](O[C@H]2[C@H](N(C)C)[C@@H](O)[C@H](O[C@H]3[C@@H](CC=O)C[C@@H](C)[C@@H](O)CN(C)CCC(/C=C/Cc4ccnc5ccccc45)NC(=O)C[C@@H](OC(=O)CC)[C@@H]3OC)O[C@@H]2C)C[C@@]1(C)O (stereo in doubt) ?
Response given: 0.25
